B1: VH:VL chains; a variant is named by its letters at X, in order (parent)
chain 1: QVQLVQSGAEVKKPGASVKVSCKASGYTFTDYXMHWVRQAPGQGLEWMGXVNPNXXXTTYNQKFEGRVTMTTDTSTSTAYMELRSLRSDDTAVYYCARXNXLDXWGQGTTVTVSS
chain 2: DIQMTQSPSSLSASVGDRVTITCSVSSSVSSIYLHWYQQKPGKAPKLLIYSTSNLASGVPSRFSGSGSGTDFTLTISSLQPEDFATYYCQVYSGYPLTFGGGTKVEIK

# Variants of: B1
# protocol summary: yeast display scFab, FACS + sequencing
# condition summary: with MET
This is one part of the list. No count for the full screen is at hand.
measured property: antigen binding call

Solved cases (5 shown):
>>> measured_value("YAAGGDGV")
"no binding"
>>> measured_value("SERRDVLY")
"no binding"
>>> measured_value("YTARGVSF")
"no binding"
>>> measured_value("DKEGGAVV")
"no binding"
>>> measured_value("YRTRGAGD")
"binds"

// below: antigen binding call requested for another variant
Recall and state the measured antigen binding call for `FARGASGV` .
no binding

The measured values listed here are drawn from the emibetuzumab library of Makowski et al. (2022).
